Data provenance is PubChem BioAssay.

experiment: HepG2 cell viability effects, profiling panel, calcein-AM fluorescence, 48 h, basal (AID 1164); conditions: higher = more signal; also: test concentration not given here
# z-score annotations

- COMPOUND: "COc1cc2c(cc1O)C(c1ccc(CN3CCCC3)cc1)N(Cc1ccc([N+](=O)[O-])o1)CC2 (stereo not drawn)"
  z-score: 0.0023
- COMPOUND: "O=C1c2ccccc2[C@@]2(Cc3ccccc3N(Cc3ccccc3)C2=O)[C@H](c2ccc(CO)cc2)N1Cc1ccccc1"
  z-score: -0.643
- COMPOUND: "COCC1=C([C@H](O)CCc2ccccc2)[C@H](CO)n2c(=O)n(-c3ccccc3)c(=O)n2C1"
  z-score: 0.925
- COMPOUND: "CC(C)c1ccc(NN2C(C(O)C(C)C)C=CC3C(=O)N(c4ccccc4)C(=O)C32)cc1 (stereo not drawn)"
  z-score: -0.463
- COMPOUND: "COC(=O)[C@@]1(Cc2ccc(OC)cc2)[C@H]2c3cc(C(=O)N(C)C)n(Cc4ccsc4Br)c3C[C@H]2CN1C(=O)c1ccccc1"
  z-score: 0.205
- COMPOUND: "COC(=O)[C@@]1(Cc2ccc(OC)cc2)[C@H]2c3cc(C(=O)N4CCCC4)n(CCc4ccc(OC)c(Br)c4)c3C[C@H]2CN1C(=O)c1ccccc1"
  z-score: 0.347
- COMPOUND: "C=CC[C@]1(C(=O)N(C)C)COC(c2ccc(OCCCO)cc2)=N1"
  z-score: -0.8
- COMPOUND: "O=C(NCCO)C1=C[C@H](Oc2ccccc2I)[C@@H](O)[C@H](NCc2ccc(F)cc2)C1"
  z-score: -0.793
- COMPOUND: "CC(C)C[C@H]1NC(=O)[C@H](Cc2ccccc2)NC(=O)[C@@]23C(=O)N[C@@H](Cc4ccccc4)C2[C@H](C)[C@@]2(C)O[C@H]2C3/C=C/C/C=C\\CNC1=O (stereo partly drawn)"
  z-score: -1.04
- COMPOUND: "COc1ccc(CCNC(=O)[C@@H]2c3ccccc3C(=O)N(CC34CC5CC(CC(C5)C3)C4)[C@H]2c2ccc(CO)cc2)cc1"
  z-score: 0.463
- COMPOUND: "CCCC[C@H]1OB(O)C[C@H]2C1=C(C)C[C@H]1C(=O)C=CC(=O)[C@H]12"
  z-score: -0.799
- COMPOUND: "C=C(CC1([C@@H](NP(=O)(c2ccccc2)c2ccccc2)[C@H]2C[C@@H]2CCN(C(=O)OCC)S(=O)(=O)c2ccc(C)cc2)CC1)c1ccccc1"
  z-score: -1.12
- COMPOUND: "CCC[C@@H]1[C@@H](Sc2ccccc2)[C@@H](C(=O)O)[C@H](c2ccc(C)cc2)N1S(=O)(=O)c1ccc(C)cc1"
  z-score: 0.699
- COMPOUND: "COCCOC(=O)N1C(=O)[C@@]2(c3cc(C#CCCO)ccc31)[C@H](C(=O)N1CCN(c3ncccn3)CC1)[C@H]1C(=O)O[C@H](c3ccccc3)[C@H](c3ccccc3)N1[C@@H]2c1ccc(O)cc1"
  z-score: 1.54
- COMPOUND: "COC(=O)[C@@]1(Cc2ccc(F)cc2)[C@H]2c3cc(C(=O)N4CCCC4)n(CCO)c3C[C@H]2CN1C(=O)c1ccccc1"
  z-score: -0.885
- COMPOUND: "CN(C)CCCC[C@@H]1NC(=O)[C@H]2C[C@@H](C(=O)NCc3ccc(F)cc3)[C@@H](c3ccc(O)cc3)N2C1=O"
  z-score: -0.372
- COMPOUND: "CC1(C)OC[C@@]23C=C(Br)[C@@H](C[C@H]12)[C@@]1(CO1)C3=O"
  z-score: -0.0344
- COMPOUND: "CCOC(=O)C1=CC[C@@H](c2ccccc2)N(S(=O)(=O)c2ccc(C)cc2)[C@H]1C#N"
  z-score: -0.139
- COMPOUND: "CC(c1ccccc1)C(O)C1C=CC2C(=O)N(c3ccccc3)C(=O)C2N1Nc1ccc(C#N)cc1 (stereo not drawn)"
  z-score: 1.49
- COMPOUND: "C=CCN1C(=O)[C@]2(O[C@H](CCO)[C@@H]([Si](C)(C)c3ccc(OC)cc3)[C@@H]2C)c2ccccc21"
  z-score: -4.62
- COMPOUND: "C=CCC(OC(C)=O)[C@@H]1[C@@H](N(Cc2cc3ccccc3o2)C(=O)Cc2ccc(OC)cc2)c2cc(OCCCO)ccc2N1C(=O)Cc1ccc2ccccc2c1 (stereo partly drawn)"
  z-score: -0.118
- COMPOUND: "COCCOC(=O)N1C(=O)[C@@]2(c3ccccc31)[C@H](c1ccc(OCCO)cc1)N1[C@H](c3ccccc3)[C@H](c3ccccc3)OC(=O)[C@H]1[C@@H]2C(=O)N1CCN(c2ncccn2)CC1"
  z-score: -0.29
- COMPOUND: "CCOC(=O)C1=CC[C@@H](c2ccccc2Cl)N(S(=O)(=O)c2ccc(C)cc2)[C@H]1c1cccc(OC)c1"
  z-score: -0.467
- COMPOUND: "COc1ccc(NN2C(C(O)c3ccc(OC)cc3)C=CC3C(=O)N(C4CCCCC4)C(=O)C32)cc1 (stereo not drawn)"
  z-score: 1.24
- COMPOUND: "COCCOC(=O)N1C(=O)[C@@]2(c3cc(C#CC4=CCCCC4)ccc31)[C@H](C(=O)N1CCc3cc(OC)c(OC)cc3C1)[C@H]1C(=O)O[C@H](c3ccccc3)[C@H](c3ccccc3)N1[C@@H]2c1ccc(O)cc1"
  z-score: 0.334
- COMPOUND: "CCN(CC)c1ccc(N2CC=CC34O[C@@H]5C=CCOC(=O)[C@@H]5[C@H]3C(=O)N(CCO)[C@@H]4C2=O)cc1 (stereo partly drawn)"
  z-score: 0.662
- COMPOUND: "COc1cccc(OC)c1C(=O)O[C@H]1[C@@H]2OC(=O)[C@H](Cc3cccc(Br)c3)C/C=C/C[C@@H](Cc3cccc(Br)c3)C(=O)O[C@H]2[C@@H](OC)O[C@@H]1CO"
  z-score: -0.215
- COMPOUND: "CO[C@H]1O[C@H](CO)[C@@H](OC(=O)Nc2ccc3c(c2)OCO3)[C@@H]2OC(=O)[C@@H](Cc3ccccc3)C/C=C/C[C@H](Cc3ccccc3)C(=O)O[C@@H]12"
  z-score: 0.843

---

# composite z-score annotations
test system: glycogen synthase kinase-3 (GSK3A per assay name; protocol says GSK3B); experiment: GSK3 binders on small-molecule microarrays, primary screen, biochemical, small-molecule microarray, 635 nm fluorescence, GSK3A (AID 1103); settings: small-molecule microarray binding, fluorescence 635 nm; higher = more signal; also: the record names both GSK3A and GSK3B

- MOLECULE: "C[C@H]1C2[C@H](Cc3ccccc3)NC(=O)[C@]23C(=O)NCC(=O)N2CCC[C@H]2C(=O)NC/C=C\\C/C=C/C3[C@@H]2O[C@]12C (stereo partly specified)"
  TARGET_OF_ASSAY: "glycogen synthase kinase-3 (GSK3A per assay name; protocol says GSK3B)"
  composite z-score: -0.0567
- MOLECULE: "COCCCNC(=O)[C@@H]1c2ccccc2C(=O)N(Cc2cc(C(F)(F)F)cc(C(F)(F)F)c2)[C@H]1c1ccc(CO)cc1"
  TARGET_OF_ASSAY: "glycogen synthase kinase-3 (GSK3A per assay name; protocol says GSK3B)"
  composite z-score: 0.0135
- MOLECULE: "CC(C)C(=C=CC[C@@H](O)c1ccccc1OCCO)C[C@@H](O)c1cc(Cl)cc(Cl)c1O"
  TARGET_OF_ASSAY: "glycogen synthase kinase-3 (GSK3A per assay name; protocol says GSK3B)"
  composite z-score: 1.13
- MOLECULE: "CN(C)C(=O)[C@]1(Cc2ccccc2)N=C(c2ccc(OCCCO)cc2)O[C@@H]1c1ccccc1"
  TARGET_OF_ASSAY: "glycogen synthase kinase-3 (GSK3A per assay name; protocol says GSK3B)"
  composite z-score: 1.29
- MOLECULE: "CN1C(=O)[C@]2(CCC(=O)OC(C)(C)C)N=C(c3ccc(OCCCO)cc3)O[C@@H]2c2ccccc21"
  TARGET_OF_ASSAY: "glycogen synthase kinase-3 (GSK3A per assay name; protocol says GSK3B)"
  composite z-score: 1.29
- MOLECULE: "COc1cc2c(cc1O)C(c1ccc(CN3CCCC3)cc1)N(Cc1ccc([N+](=O)[O-])o1)CC2 (stereo unspecified)"
  TARGET_OF_ASSAY: "glycogen synthase kinase-3 (GSK3A per assay name; protocol says GSK3B)"
  composite z-score: -0.903

---

# z-score annotations
assay: adipocyte viability effects, profiling panel, cell-based, 3T3-L1 adipocytes, calcein-AM fluorescence, 48 h, basal (AID 1163); conditions: 3T3-L1 adipocytes viability, higher = more signal; also: test concentration not given here

- MOLECULE: "COCCOC(=O)N1C(=O)[C@@]2(c3cc(C#CC4=CCCCC4)ccc31)[C@H](C(=O)N1CCN(c3ncccn3)CC1)[C@H]1C(=O)O[C@H](c3ccccc3)[C@H](c3ccccc3)N1[C@@H]2c1ccccc1OCCO"
  z-score: 1.36
- MOLECULE: "O=C1O[C@@H](c2ccccc2)[C@@H](c2ccccc2)N2[C@@H](c3ccc(OCCO)cc3)[C@]3(C(=O)Nc4ccc(C#CCCO)cc43)[C@@H](C(=O)Nc3nc4ccccc4s3)[C@H]12"
  z-score: 0.794
- MOLECULE: "NCCCC[C@@H]1NC(=O)[C@H]2C[C@@H](C(=O)NCc3ccc(F)cc3)[C@@H](c3cccc(OCCO)c3)N2C1=O"
  z-score: -0.716
- MOLECULE: "C=CCC(OC(C)=O)[C@@H]1[C@@H](N(Cc2ccc(-c3cccc(C(F)(F)F)c3)o2)C(=O)Cc2ccc(OC)cc2)c2cc(OCCCO)ccc2N1C(=O)c1ccc2ccccc2n1 (stereo partly specified)"
  z-score: 0.341
- MOLECULE: "CCOC(=O)C1=C(C(=O)OCC)N(S(=O)(=O)CC[Si](C)(C)C)[C@H](c2ccccc2)CC1"
  z-score: -0.872
- MOLECULE: "COc1ccc(C#Cc2ccc3c(c2)[C@]2(C(=O)N3)[C@H](c3ccc(OCCO)cc3)N3[C@H](c4ccccc4)[C@H](c4ccccc4)OC(=O)[C@H]3[C@@H]2C(=O)O)cc1"
  z-score: 1.33
